The reported measurements were obtained from patent US11001563B2.

Biological target: VAP-1/SSAO (Homo sapiens (Human), UniProt Q16853)
Sequence (Q16853 whole entry): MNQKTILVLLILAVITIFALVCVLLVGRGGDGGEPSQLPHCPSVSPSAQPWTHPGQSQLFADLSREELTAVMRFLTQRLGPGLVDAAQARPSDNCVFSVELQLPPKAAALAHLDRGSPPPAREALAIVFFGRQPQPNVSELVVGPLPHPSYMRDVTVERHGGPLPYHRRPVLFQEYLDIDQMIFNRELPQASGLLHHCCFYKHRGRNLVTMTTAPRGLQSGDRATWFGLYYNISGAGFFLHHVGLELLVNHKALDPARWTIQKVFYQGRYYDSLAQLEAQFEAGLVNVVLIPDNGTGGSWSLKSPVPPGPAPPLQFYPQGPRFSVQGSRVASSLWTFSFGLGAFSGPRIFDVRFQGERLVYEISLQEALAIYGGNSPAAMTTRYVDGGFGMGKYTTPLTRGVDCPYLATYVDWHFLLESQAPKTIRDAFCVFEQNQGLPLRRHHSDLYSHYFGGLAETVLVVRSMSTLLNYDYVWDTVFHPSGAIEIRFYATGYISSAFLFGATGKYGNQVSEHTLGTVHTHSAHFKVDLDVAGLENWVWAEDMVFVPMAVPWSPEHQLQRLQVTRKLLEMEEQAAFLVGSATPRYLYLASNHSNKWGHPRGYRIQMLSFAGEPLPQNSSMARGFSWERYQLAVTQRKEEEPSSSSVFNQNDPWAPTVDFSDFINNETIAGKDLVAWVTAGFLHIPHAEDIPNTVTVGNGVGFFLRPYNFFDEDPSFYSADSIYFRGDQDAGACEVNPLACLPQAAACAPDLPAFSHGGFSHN
Experiment: Human VAP-1 enzyme activity assay (Amplex Red Monoamine Oxidase kit)
Assay type: biochemical
Details: 10 nM VAP-1 enzyme, 30 min preincubation, benzylamine substrate; read-out: Human Recombinant VAP-1/SSAO Enzyme Inhibitory Activity IC50
value-kind: log10 of IC50 (log10 of the value in nM)

molecule | measured
Cn1nc(-c2ccc(OC/C(=C/F)CN)cc2)nc1C1CCOCC1 | 0.46
NC/C(=C\F)COc1ccc(-c2nc(C3CC3)no2)c(Cl)c1 | 0.23
NC/C(=C\F)COc1ccc(-c2nc(C3CC3)n[nH]2)c(F)c1 | -0.52
Cn1nc(C2CC2)nc1-c1ccc(OC/C(=C/F)CN)cc1 | 0.32
Cc1coc(-c2ccc(OC/C(=C/F)CN)cc2)n1 | -0.30
CC(C)n1nc(-c2ccc(OC/C(=C/F)CN)cc2)nc1C1CC1 | 0.08
Cc1ncc(-c2ccc(OC/C(=C/F)CN)cc2)s1 | -0.52
NC/C(=C\F)COc1ccc(-c2nc(C3CC3)n(CCO)n2)cc1 | 0.23
Cc1noc(-c2ccc(OC/C(=C/F)CN)cc2)n1.Cl | -0.40
NC/C(=C\F)COc1ccc(-c2n[nH]c(C(CO)CCl)n2)cc1 (stereo not drawn) | -0.40
Cl.Cn1nc(-c2ccc(OC/C(=C/F)CN)cc2)nc1C(F)F | -0.70
Cn1nc(-c2ccc(OC/C(=C/F)CN)cc2Cl)nc1N1CCOCC1 | -0.05
NC/C(=C\F)COc1ccc(-c2nc(C3CC3)no2)cc1 | 0.00
Cn1cnc(-c2ccc(OC/C(=C/F)CN)cc2)n1 | -0.05
NC/C(=C\F)COc1ccc(-c2nc(-c3ccccc3)no2)cc1 | -0.10
NC/C(=C\F)COc1ccc(-c2nc(CC(F)(F)F)n[nH]2)cc1 | -0.40
CC(C)(C)C(=O)Nc1noc(-c2ccc(OC/C(=C/F)CN)cc2)n1 | 0.20
Cc1cnoc1-c1ccc(OC/C(=C/F)CN)cc1 | -0.30
